System: HSV-1
method description: Viral titer from Vero cells pre-treated with oligonucleotide, HSV-1
Format: cell-based, African Green monkey (Vero cells)
condition notes: cells infected with HSV-1; cells pre-treated 1 μg/ml, 30 sec
recorded endpoint: Viral titer, percent of control titer

1) 5′-TGACTGTGAACGTTCGAGATGA-3′ [SEQ ID NO: 1]	98% of control titer
2) 5′-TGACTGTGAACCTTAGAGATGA-3′ (chemistry not given here) [SEQ ID NO: 12, non-ISS control oligonucleotide, reference compound]	132% of control titer
3) 5′-TCGTCGAACGTTCGTTAACGTTCG-3′ (listed as DNA, chemistry not given here) [SEQ ID NO: 11, ISS oligonucleotide]	129% of control titer

// switching to the query substance
The substance listed as 5′-TGACTGTGAAGGTTAGAGATGA-3′ (chemistry not given here) [SEQ ID NO: 9, reference compound] shows Viral titer, percent of control titer equal to 100% of control titer

---

# key: entry, value: Viral titer, percent of control titer
Tested on: HSV-2
method description: Viral titer from Vero cells pre-treated with oligonucleotide, HSV-2
Assay type: cell-based, African Green monkey (Vero cells)
condition notes: cells infected with HSV-2; cells pre-treated 1 μg/ml, 30 sec

1. 5′-TGACTGTGAAGGTTAGAGATGA-3′ (chemistry not given here) [SEQ ID NO: 9, reference compound]	98% of control titer
2. 5′-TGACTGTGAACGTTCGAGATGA-3′ [SEQ ID NO: 1]	101% of control titer
3. 5′-TCGTCGAACGTTCGTTAACGTTCG-3′ (listed as DNA, chemistry not given here) [SEQ ID NO: 11, ISS oligonucleotide]	119% of control titer

The substance listed as 5′-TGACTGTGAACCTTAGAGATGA-3′ (chemistry not given here) [SEQ ID NO: 12, non-ISS control oligonucleotide, reference compound] shows Viral titer, percent of control titer equal to 111% of control titer

---

# key: entry, value: Viral titer, percent of control titer
Tested on: HSV-1
method description: Viral titer from Vero cells pre-treated with oligonucleotide, HSV-1
Format: cell-based, African Green monkey (Vero cells)
condition notes: cells infected with HSV-1; cells pre-treated 1 μg/ml, 10 min

1) 5′-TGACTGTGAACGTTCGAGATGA-3′ [SEQ ID NO: 1]	96% of control titer

The substance listed as 5′-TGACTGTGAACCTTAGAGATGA-3′ (chemistry not given here) [SEQ ID NO: 12, non-ISS control oligonucleotide, reference compound] shows Viral titer, percent of control titer equal to 98% of control titer

The substance listed as 5′-TGACTGTGAAGGTTAGAGATGA-3′ (chemistry not given here) [SEQ ID NO: 9, reference compound] shows Viral titer, percent of control titer equal to 99% of control titer

The substance listed as 5′-TCGTCGAACGTTCGTTAACGTTCG-3′ (listed as DNA, chemistry not given here) [SEQ ID NO: 11, ISS oligonucleotide] shows Viral titer, percent of control titer equal to 95% of control titer
